test system: KP-4 (Pancreatic Carcinoma); test: Bliss excess, mean over the matrix (fraction); higher = more synergy;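 note: after 72 h of two-drug dosing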
Please use yes (1) whenever Bliss excess is not below -0.03, and no (0) whenever it is.

Task: Would you say CN(CCO)CC[C@H](CSc1ccccc1)Nc1ccc(S(=O)(=O)NC(=O)c2ccc(N3CCC([C@@H](O)c4ccccc4-c4ccc(Cl)cc4)CC3)cc2)cc1S(=O)(=O)C(F)(F)F [AZD4320] + C[C@@H]1COCCN1C2=NC(=NC(=C2)C3(CC3)[S@](=N)(=O)C)C4=C5C=CNC5=NC=C4 [AZD6738] (first compound max 1 µM, 7x7, partner max 10 µM) shows Bliss excess at minimum -0.03?
Output: no (0)

Task: # check: Bliss excess of CN(CCO)CC[C@H](CSc1ccccc1)Nc1ccc(S(=O)(=O)NC(=O)c2ccc(N3CCC([C@@H](O)c4ccccc4-c4ccc(Cl)cc4)CC3)cc2)cc1S(=O)(=O)C(F)(F)F [AZD4320] + Cn1cnc2c(F)c(Nc3ccc(Br)cc3Cl)c(C(=O)NOCCO)cc21 [Selumetinib] (first compound max 1 µM, 7x7, partner max 3 µM) is greater than or equal to -0.03
Output: yes (1)

Task: Evaluate Cn1cnc2c(F)c(Nc3ccc(Br)cc3Cl)c(C(=O)NOCCO)cc21 [Selumetinib] + C[C@@H]1COCCN1C2=NC(=NC(=C2)C3(CC3)[S@](=N)(=O)C)C4=C5C=CNC5=NC=C4 [AZD6738] (first compound max 10 µM, 7x7, partner max 10 µM) : Bliss excess at minimum -0.03?
Output: no (0)

Task: Assess whether reported Bliss excess for Cc1cc2ncnn2cc1Nc1ncc2c(n1)n(C1CCOCC1)c(=O)n2C [AZD7648] + CN(C)CCCOc1ccc(-c2ccc3ncc4c(c3c2)n(C2CCOCC2)c(=O)n4C)cn1 [AZD0156] (first compound max 10 µM, 7x7, partner max 1 µM) sits at -0.03 or higher.
Output: yes (1)

Task: # bool: Bliss excess of CCN(CCO)CCCOc1ccc2c(Nc3cc(CC(=O)Nc4cccc(F)c4)[nH]n3)ncnc2c1 [AZD2811] + C[C@@H]1COCCN1C2=NC(=NC(=C2)C3(CC3)[S@](=N)(=O)C)C4=C5C=CNC5=NC=C4 [AZD6738] (first compound max 1 µM, 7x7, partner max 10 µM) >= -0.03
Output: yes (1)

Task: Does Bliss excess meet or surpass -0.03 for Cc1c2c(nn1C)CSCc1cc(n(C)n1)CSc1cc(c3ccccc3c1)OCCCc1c(C(=O)O)n(C)c3c-2c(Cl)ccc13 [AZD5991] + CN(C)CCCOc1ccc(-c2ccc3ncc4c(c3c2)n(C2CCOCC2)c(=O)n4C)cn1 [AZD0156] (first compound max 1 µM, 7x7, partner max 1 µM) ?
Output: yes (1)

Task: API: above_or_equal(metric=Bliss excess, cutoff=-0.03) for item C[C@@H](Oc1cc(-c2cnn(C3CCNCC3)c2)cnc1N)c1c(Cl)ccc(F)c1Cl [Crizotinib] + Cn1cnc2c(F)c(Nc3ccc(Br)cc3Cl)c(C(=O)NOCCO)cc21 [Selumetinib] (first compound max 10 µM, 7x7, partner max 10 µM)
Output: yes (1)

Task: Identify whether the reported Bliss excess of the following compound is -0.03 or greater: Cc1c2c(nn1C)CSCc1cc(n(C)n1)CSc1cc(c3ccccc3c1)OCCCc1c(C(=O)O)n(C)c3c-2c(Cl)ccc13 [AZD5991] + CC1(C)CCC(CN2CCN(c3ccc(C(=O)NS(=O)(=O)c4ccc(NCC5CCOCC5)c([N+](=O)[O-])c4)c(Oc4cnc5[nH]ccc5c4)c3)CC2)=C(c2ccc(Cl)cc2)C1 [Venetoclax] (first compound max 1 µM, 7x7, partner max 1 µM)
Output: no (0)

Task: Given the entry C=CCn1c(=O)c2cnc(Nc3ccc(N4CCN(C)CC4)cc3)nc2n1-c1cccc(C(C)(C)O)n1 [AZD1775] + CCc1c2c(nc3ccc(O)cc13)-c1cc3c(c(=O)n1C2)COC(=O)[C@]3(O)CC [SN-38] (first compound max 1 µM, partner max 0.3 µM) , answer whether its Bliss excess meets or surpasses -0.03.
Output: yes (1)

Task: Quick check, Bliss excess >= -0.03? C=CCn1c(=O)c2cnc(Nc3ccc(N4CCN(C)CC4)cc3)nc2n1-c1cccc(C(C)(C)O)n1 [AZD1775] + C1CN(CCC1(C(=O)N[C@@H](CCO)C2=CC=C(C=C2)Cl)N)C3=NC=NC4=C3C=CN4 [Capivasertib] (first compound max 3 µM, partner max 3 µM)
Output: no (0)

Task: State whether the measured Bliss excess reaches -0.03, counting equality as reaching it, for CCN(CCO)CCCOc1ccc2c(Nc3cc(CC(=O)Nc4cccc(F)c4)[nH]n3)ncnc2c1 [AZD2811] + O=C(c1cc(Cc2n[nH]c(=O)c3ccccc23)ccc1F)N1CCN(C(=O)C2CC2)CC1 [Olaparib] (first compound max 1 µM, 7x7, partner max 10 µM)
Output: yes (1)

Task: Tell me whether Bliss excess is at least -0.03 here: COc1cc2c(cc1OCCCCCOc1cc3c(cc1OC)C(=O)N1C=C(C)C[C@H]1C=N3)N=C[C@@H]1CC(C)=CN1C2=O [SG3199] + O=C(c1cc(Cc2n[nH]c(=O)c3ccccc23)ccc1F)N1CCN(C(=O)C2CC2)CC1 [Olaparib] (first compound max 0.001 µM, 7x7, partner max 10 µM)
Output: no (0)

Task: Does the reported Bliss excess for COc1cccc(OCCCN)c1-c1cc(Nc2cnc(C#N)cn2)n[nH]1 [Prexasertib] + O=C(c1cc(Cc2n[nH]c(=O)c3ccccc23)ccc1F)N1CCN(C(=O)C2CC2)CC1 [Olaparib] (first compound max 1 µM, 7x7, partner max 10 µM) fall at or above the -0.03 mark?
Output: yes (1)
